# assay-name: Toxicity of chemotherapy, radioimmunotherapy and combination therapy by weight loss (FIG. 8)
# Parameters: species or system Swiss nude mice
# condition-info: Swiss nude, mouse, in vivo, intravenous; together with Leucovorin at 120 mg/kg
observable: MTD
The answer should read as a number with its unit following.

Problem: Find the recorded MTD belonging to O=c1[nH]cc(F)c(=O)[nH]1 and report it.
Result: 180 mg/kg
